B1: LOC100129726 (parent)
chain: AKAADSPTRNDLESGLGHFSLRVH

Variants of: B1
method.description: protein stability index of a GFP-peptide fusion (GPS, HEK-293T) (PSI 1-6); higher = more stable;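 further: lentivirally expressed fusions sorted by FACS into six bins by GFP to DsRed ratio, PSI derived from sequencing read proportions per bin multiplied by bin number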
condition.context: c terminus: a fixed tail appended
Below, each entry is listed alongside its reported protein stability index.
The reply should be a number, written without any unit.

Record excerpt, results attached:
variant.id | protein stability index
R22N | 3.62
L16S | 3.77
D11R | 2.54
L12V | 3.62
R9W | 1.86
V23G | 4.16

Any idea what its protein stability index is? The variant is D5H
2.63

Any idea what its protein stability index is? The variant is L12M
3.78
